assay_text: protein stability index of a GFP-peptide fusion (GPS, HEK-293T) (PSI 1-6); higher = more stable;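 also: 24-mer peptide tiles fused after GFP, lentivirally expressed, FACS-sorted into six equal bins by GFP/DsRed ratio, decoded by Illumina sequencing, PSI is the read-weighted mean bin number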
condition_label: treatment: DMSO; c terminus: a fixed tail appended
property: protein stability index
Numbers only.

Batch: protein stability index for all items listed.
1. KIGCGNFGELRLGKNLYTNEYVAI [CSNK1G1]
2. KQLLNSAVIAQQRRKPDPPKDENE [DLC1]

Solution:
1: 2.51; 2: 5.35

For every item below, please supply its protein stability index.
1. RSFSDKQKISLLHSCTCVLYTPSN [ALG2]
2. ARAEAEQMAKKAEAFQLYQEAAQL [FLOT1]
3. AIEIFRYSFYMLTCIDMDWKVLTW [HACD3]
4. MHMVDLMSSIICEGDTVSQELLDT [PDS5B]

Solution:
1: 2.17; 2: 4.49; 3: 3.23; 4: 3.6

Hello, I would appreciate it if you could give protein stability index for each entry below.
1. MNLMNELKQNFSKSWHDMQTTTAY [TPD52L1]
2. SDDLERTIEERVNILFDFVKKKKE [EIF5]
3. TIKVSYARPSSASIRDANLYVSGL [ELAVL3]
4. DTEVITVEKSSPATSLFVELDEEE [BCL2L13]
5. VSISVVHGNLSEEAAKQMRSRGKV [CPOX]

Solution:
1. 2.62
2. 3.97
3. 2.37
4. 5.39
5. 3.37
